Reference source for all entries: patent US10654939

# study-target: T1, human CD40 expressed on cells (human, UniProt P25942 21-277)
# T1 construct: also called HEK293A/humanCD40
# T1 sequence (P25942 21-277 limits assumed): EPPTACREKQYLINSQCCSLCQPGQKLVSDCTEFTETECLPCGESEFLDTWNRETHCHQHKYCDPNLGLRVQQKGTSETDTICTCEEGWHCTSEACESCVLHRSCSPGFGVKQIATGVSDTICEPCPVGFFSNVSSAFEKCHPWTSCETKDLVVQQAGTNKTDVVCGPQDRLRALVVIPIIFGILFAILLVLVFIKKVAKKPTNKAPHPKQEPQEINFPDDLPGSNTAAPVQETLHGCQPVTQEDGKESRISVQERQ
# assay: FACS, HEK293A/humanCD40 cells
# EC50 per entry

Here are 2 binders together with their reported answers.
binder	recorded-endpoint	result
92F6 (mouse monoclonal antibody) (antibody, V domains shown) VH: QVQLEQSGAEVVKPGASVKVSCTASGFNIKDTYMHWVKQRPEQGLEWIGRIDPANGNTNYDPKFQGKATITADTSSNTGYLQLSSLTSEDTAVYYCSRWGYDWYFDVWGAGTSVTVSS VL: DIVITQSTAIMSASPGEKVTITCSASSSVSYIHWFQQKPGTSPKLWIYTTANLASGVPARFSGSGSGTSYSLTISRMEAEDAATYYCQQRSNYPFTFGSGTKLEIK	EC50	0.0779 µg/mL
77D9 (mouse monoclonal antibody) (antibody, V domains shown) VH: QVKLEESGGGLVKPGGSLKLSCAASGFTFRNYAMSWVRQSPGERLEWVAEVSGSGYYTYYPDTVTGRFTISRDNANNTLYLEVSSLRSEDTAMYYCTSRAYWGQGTLVTVSA VL: IVMTQSPTLSLPVSLGDQASISCRSSQSIVLTNGNTYLEWYLQRPGQSPKLLIYKVSNRFSGVPDRFSGSGSGTDFTLKISRVEAEDLGVYYCFQGSHVPYTFGGGTKLEIK	EC50	0.033 µg/mL

Then this binder:
Problem: # query: EC50 of entry 142F7 (mouse monoclonal antibody) (antibody, V domains shown) VH: EVQLEQSGAELVRPGTSVKVSCKASGYAFTNYLIEWGIQRPGQGLEWIGVINPGTGGTNYNEKFKDKATLTTDKSSSTAYMQLSSLTSDDSAVYFCARGGSGFAYWGQGTLVTVSA VL: DIVLTQTTSSLSASLGDRVTISCRASQDINNYLNWYQQKPDGTVKLLIYYTSRLHSGVPSRFSGSGSGTDYSLTISNLEQEDIATYFCQQGNTLPWTFGGGTKLEIK
Result: 0.0155 µg/mL
